Target: Man(a1-3)[Man(a1-6)]Man(b1-4)GlcNAc(b1-4)[Fuc(a1-6)]GlcNAc
Test: glycan array binding signal (z-score within array); higher = stronger binding
Settings: glycan notation: IUPAC condensed, linker removed
About 410 targets per protein were measured; listed, in parts, are those with the strongest signals and a random draw of the rest.
Can you tell me glycan array binding signal (z-score) for the items I'm about to list?

Field glycan array binding signal (z-score) (entry Banana lectin (Musa acuminata) (protein) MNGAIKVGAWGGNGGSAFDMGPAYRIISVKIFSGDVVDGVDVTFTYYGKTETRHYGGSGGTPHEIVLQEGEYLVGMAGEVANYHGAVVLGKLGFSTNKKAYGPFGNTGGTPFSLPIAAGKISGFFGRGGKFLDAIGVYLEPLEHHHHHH ) reads 2.88

Field glycan array binding signal (z-score) (entry HML-Native (Hypnea musciformis), P84871 (protein) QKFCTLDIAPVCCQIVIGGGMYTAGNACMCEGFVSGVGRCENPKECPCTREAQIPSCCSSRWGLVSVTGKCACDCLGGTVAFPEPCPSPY ) reads 5.72
